- SYSTEM TESTED: Recombinant Human CTLA4-Fc chimera (R&D systems) (human) (UniProt P16410)
- TEST METHOD NOTES: ELISA, signal over SA
REPORTED ENDPOINT: ELISA S/N(SA)
Answer using only a numeral; do not append any unit.

Sample records with ELISA S/N(SA):
BINDER | OBSERVED
GGCRHPFLPIVSTHFCSR (peptide, not shown: large carriers; small tags and cut ends) [C4m#19-5th4w-NN6-77] | 30.5
GGCQHPWLPISSWHFCPR (peptide, not shown: large carriers; small tags and cut ends) [C4m#19-5th2w-NNS6-67] | 25.5
GGCPHPFLPIWSVHFCPF (peptide, not shown: large carriers; small tags and cut ends) [C4m#19-5th4w-NN6-32] | 27.2
GGCRHPFLPIFSLHFCAR (peptide, not shown: large carriers; small tags and cut ends) [C4m#19-5th2w-NNS6-8] | 16.5

ELISA S/N(SA) recorded for this binder, GGCKHPFLPISSHHFCPY (peptide, not shown: large carriers; small tags and cut ends) [C4m#19-5th2w-NNS6-25] , is 21.1
